Test system: lambsquarters
Assay: Test D preemergence
Assay type: in vivo, Chenopodium album
Conditions: 125 g ai/ha, scale 0 to 100
QUANTITY KIND: Plant response rating: Lambsquarters

* CCc1nc(-c2ccc(C(F)(F)F)cc2)nn1Cc1ccnc(C(F)(F)F)c1 [Compound 1] | 100
* CCOc1nc(-c2ccc(C(F)(F)F)cc2)nn1Cc1ccnc(C(F)(F)F)c1 [Compound 35] | 100
* CCOc1nc(-c2ccc(F)cc2)nn1Cc1ccnc(C(F)(F)F)c1 [Compound 8] | 100
* COc1nc(-c2ccc(Cl)cc2)nn1Cc1ccnc(C(F)(F)F)c1 [Compound 28] | 95

---

Recorded Plant response rating, Morningglory, one value per entry.
Tested on: morningglory
Assay: Test A postemergence
Type: in vivo, Ipomoea spp.
Settings: 125 g ai/ha, 0 to 100 scale (0 no effect, 100 complete control), approx. 10 d
QUANTITY KIND: Plant response rating, Morningglory

• CCCc1nc(-c2ccc(Cl)cc2)nn1Cc1ccnc(C(F)(F)F)c1 [Compound 22] = 50
• CCn1nc(-c2ccc(F)cc2)nc1Cc1ccnc(C(F)(F)F)c1 [Compound 18] = 50
• Cc1nc(-c2ccc(C(F)(F)F)cc2)nn1Cc1ccnc(C(F)(F)F)c1 [Compound 7] = 50
• CCc1nc(-c2cccc(C(F)(F)F)c2)nn1Cc1ccnc(C(F)(F)F)c1 [Compound 11] = 80

---

System: foxtail, giant
Assay: Test C postemergence
Assay type: in vivo, Setaria faberii
Conditions: 62 g ai/ha
Readings of Plant response rating (scale of 0 to 100 where 0 is no effect and 100 is complete control) for the listed molecules
QUANTITY KIND: Plant response rating (scale of 0 to 100 where 0 is no effect and 100 is complete control)

- CCOc1nc(-c2ccc(Cl)cc2)nn1Cc1ccnc(C(F)(F)F)c1: 25
- COc1nc(-c2ccc(Cl)cc2)nn1Cc1ccnc(C(F)(F)F)c1: 10
- COc1nc(-c2ccc(F)cc2)nn1Cc1ccnc(C(F)(F)F)c1: 15
- COc1nc(-c2ccccc2)nn1Cc1ccnc(C(F)(F)F)c1: 10

---

Test system: wheat
Assay: Test A preemergence
Assay type: in vivo, Triticum aestivum
Settings: 500 g ai/ha, 0 to 100 scale (0 no effect, 100 complete control), approx. 10 d
QUANTITY KIND: Plant response rating, Wheat

* Cc1nc(-c2ccc(C(F)(F)F)cc2)nn1Cc1ccnc(C(F)(F)F)c1 [Compound 7] | 10
* CCn1nc(-c2ccc(F)cc2)nc1Cc1ccnc(C(F)(F)F)c1 [Compound 18] | 0
* CCCc1nc(-c2ccc(C(F)(F)F)cc2)nn1Cc1ccnc(C(F)(F)F)c1 [Compound 12] | 30
* CCCc1nc(-c2ccc(F)c(F)c2)nn1Cc1ccnc(C(F)(F)F)c1 [Compound 23] | 40

---

Consider the following molecules and their measured Plant response rating (scale of 0 to 100 where 0 is no effect and 100 is complete control) readings.
Test system: ryegrass, Italian
Test: Test C postemergence
Format: in vivo, Lolium multiflorum
Details: 125 g ai/ha
QUANTITY KIND: Plant response rating (scale of 0 to 100 where 0 is no effect and 100 is complete control)

• CCOc1nc(-c2ccc(F)cc2)nn1Cc1ccnc(C(F)(F)F)c1 = 35
• FC(F)(F)COc1nc(-c2ccccc2)nn1Cc1ccnc(C(F)(F)F)c1 = 20
• COc1nc(-c2ccc(Cl)cc2)nn1Cc1ccnc(C(F)(F)F)c1 = 10
• CCCc1nc(-c2ccc(F)cc2)nn1Cc1ccnc(C(F)(F)F)c1 = 5
• CCc1nc(-c2ccc(C(F)(F)F)cc2)nn1Cc1ccnc(C(F)(F)F)c1 = 5
